// reported growth per item
System: UO-31 renal
test-details: NCI-60 one-dose screen, 48 h (100 = growth as untreated, 0 = no growth, -100 = all killed)
run-conditions: 10 µM unless noted
About 83,000 compounds went through this panel and 20% of them were active in at least one assay; those are over-represented in the sample as a whole.
Please reply with the bare figure in % and do not write the unit itself.

The examples below pair each entry with its known result.
compound | measured-target | unit-of-measure | growth
CS(=O)(=O)c1ccc2c(c1)c1c(n2S(=O)(=O)c2ccc(Cl)cc2)CCCC1 | UO-31 renal | % | 37.8
O=C(Nc1cc(Cl)cc(Cl)c1)Nc1nc2ccc([N+](=O)[O-])cc2s1 | UO-31 renal | % | 6.95
Cc1ccc(Nc2ncnc3c2c(C)nn3-c2ccc([N+](=O)[O-])cc2)cc1 | UO-31 renal | % | 91.3
COCCC[C@H]1O[C@@](O)([C@H](C)[C@@H]2CC(OC)C(O)/C=C(C)/C=C(C)/C=C(\C)C(OC3O[C@@H](C)[C@H](O)C(O)[C@@H]3O)C(C)/C=C(C)/C=C(OC)/C=C(\C)C(=O)O2)C(OC)C(O)[C@]1(C)O[C@H]1C[C@@H](O)[C@H](O[C@H]2C[C@](C)(O)[C@H](O)C(C)O2)C(C)O1 (stereo partly drawn) | UO-31 renal | % | 25.7
CCOC(=O)c1c(NCC(=O)Nc2cccc([N+](=O)[O-])c2)sc2c1CCCC2 | UO-31 renal | % | -17.7
CCN1C(=O)N(CC)C2SC(N/N=C/C=C/c3ccccc3OC)=NC21 (stereo not drawn) | UO-31 renal | % | 40.2
O=[N+]([O-])c1ccc(-c2nnc(SCc3ccc(O)c4ncccc34)o2)cc1 | UO-31 renal | % | 7.09

Now for a further compound.
Specify measured growth for CCCC(=O)NC(c1cccnc1)c1ccc2c(C)ccnc2c1O (stereo not drawn) .
11.8

---

Tested on: OVCAR-5 ovarian
test-details: NCI-60 one-dose screen, 48 h (100 = growth as untreated, 0 = no growth, -100 = all killed)
run-conditions: 10 µM unless noted
About 83,000 compounds went through this panel and 20% of them were active in at least one assay; those are over-represented in the sample as a whole.
measured-attribute: growth (%)
Give just the numeric value; % need not be written.

Below, 5 compounds whose answers are already recorded.
compound | unit-of-measure | growth
O=C(CSc1nnc(-c2cccs2)n1-c1ccccc1)Nc1ccc(F)cc1 | % | 97.3
CC[C@]12C=CCN3CC[C@]4(C(=C(C(=O)OC)C1)Nc1cc5c(cc14)[C@@H]1[C@H](O5)[C@@H](O)[C@@]4(CC)CC(C(=O)OC)=C5Nc6cc(OC)ccc6[C@@]56CCN1[C@@H]46)[C@@H]32 | % | 25.4
O=c1[nH]c(CNc2ccc(NCc3c(-c4ccccc4)no[n+]3[O-])cc2)nc2c1cnn2-c1ccccc1 | % | 109
Nc1nc(-c2cccc([N+](=O)[O-])c2)c(N=Nc2ccccc2[N+](=O)[O-])s1 | % | 43.5
CC1CCN(S(=O)(=O)c2ncsc2-c2ccccc2)CC1 | % | 94.8

Report growth from OVCAR-5 ovarian testing of O=C(Nc1cccc(-c2nc(-c3ccc(NC(=O)c4cccs4)cc3Cl)no2)c1)Nc1ccc(NC(=O)C2CC2)c(C(F)(F)F)c1
-14.6

Find the measured growth of C/C(=C(/C)C1CC1CCN(C(=O)c1ccc([N+](=O)[O-])cc1)S(=O)(=O)c1ccc(C)cc1)C1CCCCC1 (configuration not stated) with OVCAR-5 ovarian as test system.
101

Give growth only, for CC(C)C[C@H]1C(=O)O[C@H](C(C)C)C(=O)N(C)[C@@H](C(C)C)C(=O)O[C@H](C(C)C)C(=O)N(C)[C@@H](C(C)C)C(=O)O[C@H](C(C)C)C(=O)N1C , using OVCAR-5 ovarian data.
17.7

Given COc1ccc(C(=O)n2cc(C=O)c3ccccc32)cc1 , report its growth on OVCAR-5 ovarian.
102

Lab note: OVCAR-5 ovarian assay, enter growth for Oc1ccc(-c2nnc(SCc3ccc(O)c4ncccc34)o2)cc1 here
27.1

Enter recorded growth with OVCAR-5 ovarian for C/C(=C(/c1ccc(O)cc1)c1ccc(OCCN(C)C)cc1)c1ccc(Cl)cc1 here.
66.6

Consider the compound CN1C(=O)N(C)C2C1NN=c1s/c(=C\c3ccccn3)c(=O)n12 (configuration not stated) tested on OVCAR-5 ovarian; state its growth.
109

Consider the compound CCCCCCNC(=O)Oc1ccc(/C(=C(/C)c2ccc(Cl)cc2)c2ccc(OCCN3CCCC3)cc2)cc1 tested on OVCAR-5 ovarian; state its growth.
67.8
